Target: HER2 (Homo sapiens, UniProt P04626)
Sequence (P04626 23-1255): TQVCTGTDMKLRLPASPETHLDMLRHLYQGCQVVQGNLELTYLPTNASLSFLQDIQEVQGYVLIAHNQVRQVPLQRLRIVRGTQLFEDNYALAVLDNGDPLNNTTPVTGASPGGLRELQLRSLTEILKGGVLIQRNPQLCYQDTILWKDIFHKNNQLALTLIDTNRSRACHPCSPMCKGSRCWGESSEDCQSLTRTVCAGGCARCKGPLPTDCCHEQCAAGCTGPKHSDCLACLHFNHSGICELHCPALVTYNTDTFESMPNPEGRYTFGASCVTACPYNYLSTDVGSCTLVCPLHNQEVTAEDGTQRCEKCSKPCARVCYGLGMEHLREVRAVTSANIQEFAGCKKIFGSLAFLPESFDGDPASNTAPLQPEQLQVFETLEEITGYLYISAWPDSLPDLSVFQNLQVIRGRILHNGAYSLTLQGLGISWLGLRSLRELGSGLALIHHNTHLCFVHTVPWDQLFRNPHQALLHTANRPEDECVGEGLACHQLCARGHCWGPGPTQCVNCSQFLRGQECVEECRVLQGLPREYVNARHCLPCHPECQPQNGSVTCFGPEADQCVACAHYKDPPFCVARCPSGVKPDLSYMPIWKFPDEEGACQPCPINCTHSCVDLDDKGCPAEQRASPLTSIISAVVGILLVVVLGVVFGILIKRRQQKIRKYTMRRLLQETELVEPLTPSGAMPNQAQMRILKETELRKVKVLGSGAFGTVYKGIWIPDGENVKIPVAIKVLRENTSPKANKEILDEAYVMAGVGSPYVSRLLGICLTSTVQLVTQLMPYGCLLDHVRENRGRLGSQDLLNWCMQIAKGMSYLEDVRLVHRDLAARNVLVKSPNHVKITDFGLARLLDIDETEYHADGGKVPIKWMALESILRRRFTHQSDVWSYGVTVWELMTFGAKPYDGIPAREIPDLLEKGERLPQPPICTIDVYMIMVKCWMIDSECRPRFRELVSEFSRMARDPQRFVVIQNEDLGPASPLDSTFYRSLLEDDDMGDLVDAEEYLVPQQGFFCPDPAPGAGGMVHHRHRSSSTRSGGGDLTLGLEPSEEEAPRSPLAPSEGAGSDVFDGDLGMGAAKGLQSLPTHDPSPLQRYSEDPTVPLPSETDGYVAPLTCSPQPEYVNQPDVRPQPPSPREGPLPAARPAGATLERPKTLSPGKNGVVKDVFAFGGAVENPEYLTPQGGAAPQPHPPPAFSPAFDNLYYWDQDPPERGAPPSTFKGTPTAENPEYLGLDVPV
Result Type: IC50 (nM)
Numbers only, in nM.

// sample COc1ccc2c(c1)C(=NNC(=O)c1ccc(Nc3ncnc4[nH]ccc34)cc1)C(=O)N2 , its IC50 was 81
